Catalogue of compounds with associated solubility
experiment: Determination of water solubility (nephelometry); type: physicochemical; details: aqueous with cosolvent or surfactant or cyclodextrin, kinetic from dmso stock; 5% DMSO: 95% PBS buffer, 37° C., read after 2 and 4 h; read-out: S (solubility)
MEASUREMENT KIND: solubility (µM)

COMPOUND: O=C(Nc1ccc(F)c(F)c1F)NC12CC3CC(CC(C3)C1)C2 [Std 1, reference compound]
COMPARATOR: =
QUANTITATIVE RESULT: 66

COMPOUND: O=C(N[C@]12CC3C[C@@H](C[C@H](C3)O1)C2)N[C@H]1CC[C@H](Oc2ccc(C(=O)O)cc2)CC1 [Ig]
COMPARATOR: >
QUANTITATIVE RESULT: 100

COMPOUND: O=C(Nc1cc(Cl)cc(OC(F)(F)F)c1)NC12CC3CC(CC(C3)O1)C2 [Iu]
COMPARATOR: =
QUANTITATIVE RESULT: 45

COMPOUND: CCC12CC3CC(C1)CC(NC(=O)Nc1ccc(F)c(F)c1F)(C3)O2 [Ic]
COMPARATOR: =
QUANTITATIVE RESULT: 77

COMPOUND: CC12CC3CC(C1)CC(NC(=O)Nc1ccc(F)c(F)c1F)(C3)O2 [Ib]
COMPARATOR: =
QUANTITATIVE RESULT: 63

COMPOUND: O=C(Nc1cccc(S(F)(F)(F)(F)F)c1)NC12CC3CC(CC(C3)O1)C2 [Ix]
COMPARATOR: >
QUANTITATIVE RESULT: 100

COMPOUND: O=C(Nc1ccc(Cl)c(C(F)(F)F)c1)NC12CC3CC(CC(C3)O1)C2 [Iv]
COMPARATOR: =
QUANTITATIVE RESULT: 60

COMPOUND: CC(C)S(=O)(=O)N1CCC(NC(=O)NC23CC4CC(CC(C4)O2)C3)CC1 [Io]
COMPARATOR: >
QUANTITATIVE RESULT: 100

COMPOUND: O=C(NC1CCN(C(=O)c2ccccc2F)CC1)NC12CC3CC(CC(C3)O1)C2 [Is]
COMPARATOR: >
QUANTITATIVE RESULT: 100

COMPOUND: CC(=O)N1CCC(NC(=O)NC23CC4CC(CC(C4)O2)C3)CC1 [If]
COMPARATOR: >
QUANTITATIVE RESULT: 100

COMPOUND: O=C(Nc1ccc(F)c(F)c1F)NC12CC3CC(CC(C3)O1)C2 [Ia]
COMPARATOR: =
QUANTITATIVE RESULT: 77

---

Catalogue of compounds with associated IC50
Molecular target: recombinant human sEH (Homo sapiens, UniProt P34913)
Construct: purchased Cayman Chemical 10011669
Sequence (P34913 1-555): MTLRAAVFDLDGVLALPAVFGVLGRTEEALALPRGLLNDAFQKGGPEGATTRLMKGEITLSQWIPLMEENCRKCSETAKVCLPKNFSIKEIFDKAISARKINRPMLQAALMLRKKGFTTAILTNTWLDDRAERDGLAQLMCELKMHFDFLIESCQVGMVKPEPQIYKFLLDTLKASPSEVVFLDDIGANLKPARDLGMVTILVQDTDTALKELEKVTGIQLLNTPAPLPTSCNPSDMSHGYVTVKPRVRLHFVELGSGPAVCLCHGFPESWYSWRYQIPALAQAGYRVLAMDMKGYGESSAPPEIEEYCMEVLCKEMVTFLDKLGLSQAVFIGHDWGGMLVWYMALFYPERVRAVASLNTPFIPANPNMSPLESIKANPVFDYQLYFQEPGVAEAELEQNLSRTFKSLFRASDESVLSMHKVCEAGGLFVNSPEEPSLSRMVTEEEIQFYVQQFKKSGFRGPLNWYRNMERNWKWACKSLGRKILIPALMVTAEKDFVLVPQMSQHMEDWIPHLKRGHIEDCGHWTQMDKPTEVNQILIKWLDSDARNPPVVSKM
Assay: In vitro determination of sEH inhibition activity (fluorescent assay, PHOME substrate)
Assay type: biochemical
Conditions: mean ± Standard Error, min. three replicates, read-out: IC50 (nM) ± SE, sEH inhibition activity

COMPOUND: O=C(Nc1ccc(F)c(F)c1F)NC12CC3CC(C1)CC(c1ccccc1)(C3)O2
UNIT DESCRIPTOR: nM
IC50: 21.3
--
COMPOUND: CCC12CC3CC(C1)CC(NC(=O)Nc1ccc(F)c(F)c1F)(C3)O2
UNIT DESCRIPTOR: nM
IC50: 8.1
--
COMPOUND: CC12CC3CC(C1)CC(NC(=O)Nc1ccc(F)c(F)c1F)(C3)O2
UNIT DESCRIPTOR: nM
IC50: 21.3
--
COMPOUND: O=C(Nc1ccc(F)c(F)c1F)N[C@@]12CC3C[C@H](C1)C[C@](C1CCCCC1)(C3)O2 (stereo in doubt)
UNIT DESCRIPTOR: nM
IC50: 17.5
--
COMPOUND: O=C(N[C@]12CC3C[C@@H](C[C@H](C3)O1)C2)N[C@H]1CC[C@H](Oc2ccc(C(=O)O)cc2)CC1
UNIT DESCRIPTOR: nM
IC50: 13.4
--
COMPOUND: CC(=O)N1CCC(NC(=O)NC23CC4CC(CC(C4)O2)C3)CC1
UNIT DESCRIPTOR: nM
IC50: 19.8

---

target: sEH in AR42j cells (Rattus norvegicus, UniProt P80299); assay: In vitro determination of sEH inhibition activity in AR42j cells (cell-based fluorescent assay); details: AR-42J, read-out: % Inhn. ± SE (100 μM), sEH inhibition activity in cell culture
Sequence (P80299 whole entry): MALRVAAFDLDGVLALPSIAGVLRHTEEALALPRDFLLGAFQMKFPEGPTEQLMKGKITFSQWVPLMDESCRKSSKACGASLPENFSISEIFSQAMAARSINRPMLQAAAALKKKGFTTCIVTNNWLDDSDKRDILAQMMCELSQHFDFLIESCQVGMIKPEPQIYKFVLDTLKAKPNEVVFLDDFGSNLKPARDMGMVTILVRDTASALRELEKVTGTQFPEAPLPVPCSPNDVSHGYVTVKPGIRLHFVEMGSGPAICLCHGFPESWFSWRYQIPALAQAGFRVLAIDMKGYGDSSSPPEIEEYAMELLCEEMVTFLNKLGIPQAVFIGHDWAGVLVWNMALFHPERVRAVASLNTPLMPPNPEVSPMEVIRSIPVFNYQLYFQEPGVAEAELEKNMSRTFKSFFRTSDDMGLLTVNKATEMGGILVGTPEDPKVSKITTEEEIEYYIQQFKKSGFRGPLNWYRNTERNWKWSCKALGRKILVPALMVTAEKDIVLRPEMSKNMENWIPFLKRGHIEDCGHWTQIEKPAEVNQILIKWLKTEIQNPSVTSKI
Tick label 1 if inhibition at 100 µM is 50% or greater. Tick label 0 if inhibition at 100 µM is less than 50%.

COMPOUND: O=C(N[C@]12CC3C[C@@H](C[C@H](C3)O1)C2)N[C@H]1CC[C@H](Oc2ccc(C(=O)O)cc2)CC1
ASSIGNED LABEL: label 1
--
COMPOUND: CC(=O)N1CCC(NC(=O)NC23CC4CC(CC(C4)O2)C3)CC1
ASSIGNED LABEL: label 0
--
COMPOUND: O=C(Nc1ccc(F)c(F)c1F)NC12CC3CC(CC(C3)C1)C2 [Std 1, reference compound]
ASSIGNED LABEL: label 1
--
COMPOUND: O=C(NC1CCN(C(=O)c2ccccc2F)CC1)NC12CC3CC(CC(C3)O1)C2
ASSIGNED LABEL: label 0
--
COMPOUND: CC(C)S(=O)(=O)N1CCC(NC(=O)NC23CC4CC(CC(C4)O2)C3)CC1
ASSIGNED LABEL: label 0
--
COMPOUND: O=C(Nc1ccc(F)c(F)c1F)NC12CC3CC(CC(C3)O1)C2
ASSIGNED LABEL: label 0
--
COMPOUND: O=C(Nc1ccc(Cl)c(C(F)(F)F)c1)NC12CC3CC(CC(C3)O1)C2
ASSIGNED LABEL: label 1

---

Catalogue of molecules with associated CC50 at 72 h
test: Determination of cytotoxicity in THLE-2 cells (ATP viability); format: cell-based; conditions: human

COMPOUND STRUCTURE STRING: CC12CC3CC(C1)CC(NC(=O)Nc1ccc(F)c(F)c1F)(C3)O2
CC50 at 72 h: > 100 µM
//
COMPOUND STRUCTURE STRING: CCC12CC3CC(C1)CC(NC(=O)Nc1ccc(F)c(F)c1F)(C3)O2
CC50 at 72 h: > 100 µM

---

assay: Determination of cytotoxicity in THLE-2 cells (ATP viability); assay type: cell-based; conditions: human; THLE-2 cells, 72 h exposure, 0-100 μM; read-out: LC50 (μM), cytotoxicity
Catalogue of molecules with associated CC50 at 72 h

COMPOUND STRUCTURE STRING: CC(=O)N1CCC(NC(=O)NC23CC4CC(CC(C4)O2)C3)CC1
CC50 at 72 h: > 100 µM
//
COMPOUND STRUCTURE STRING: O=C(NC1CCN(C(=O)c2ccccc2F)CC1)NC12CC3CC(CC(C3)O1)C2
CC50 at 72 h: > 100 µM
//
COMPOUND STRUCTURE STRING: O=C(N[C@]12CC3C[C@@H](C[C@H](C3)O1)C2)N[C@H]1CC[C@H](Oc2ccc(C(=O)O)cc2)CC1
CC50 at 72 h: > 100 µM
//
COMPOUND STRUCTURE STRING: O=C(Nc1ccc(F)c(F)c1F)NC12CC3CC(CC(C3)O1)C2
CC50 at 72 h: > 100 µM
//
COMPOUND STRUCTURE STRING: CC(C)S(=O)(=O)N1CCC(NC(=O)NC23CC4CC(CC(C4)O2)C3)CC1
CC50 at 72 h: > 100 µM
//
COMPOUND STRUCTURE STRING: O=C(Nc1ccc(Cl)c(C(F)(F)F)c1)NC12CC3CC(CC(C3)O1)C2
CC50 at 72 h: 45.8 µM
